- System: MCP-3 release by human PBMC
- test.protocol: Chemokine induction in PBMC (capture ELISA)
- Type: cell-based
- condition.description: 20 μg/ml peptide, background (6) subtracted
Residues, ends and D or L forms follow the SMILES beside them.
Classify by measured Chemokine induction MCP-3: 1 if it is equal to or exceeds 1 pg/mL, 0 if it is smaller.

[
  {
    "compound": "N=C(N)NCCC[C@H](NC(=O)[C@H](CCCNC(=N)N)NC(=O)[C@H](CCCCN)NC(=O)[C@H](Cc1c[nH]c2ccccc12)NC(=O)[C@H](Cc1c[nH]c2ccccc12)NC(=O)[C@H](CCCCN)NC(=O)[C@H](CCCCN)NC(=O)[C@@H](N)Cc1c[nH]c2ccccc12)C(=O)N[C@@H](Cc1c[nH]c2ccccc12)C(N)=O [HHC48, WKKWWKRRW] (H-WKKWWKRRW-NH2; N-terminus assumed)",
    "assigned.category": 0
  },
  {
    "compound": "CC[C@H](C)[C@H](NC(=O)[C@H](CCCNC(=N)N)NC(=O)[C@H](Cc1ccccc1)NC(=O)[C@H](CCC(N)=O)NC(=O)[C@@H](N)CCCCN)C(=O)N[C@@H](CCCNC(=N)N)C(=O)N[C@H](C(=O)N[C@@H](CCCNC(=N)N)C(=O)N[C@H](C(=O)N[C@H](C(=O)N[C@@H](CCCNC(=N)N)C(=O)N[C@@H](CCCCN)C(N)=O)[C@@H](C)CC)C(C)C)C(C)C [HH12, KQFRIRVRVIRK] (H-KQFRIRVRVIRK-NH2; N-terminus assumed)",
    "assigned.category": 1
  },
  {
    "compound": "CC[C@H](C)[C@H](NC(=O)[C@H](Cc1c[nH]c2ccccc12)NC(=O)[C@H](CCCCN)NC(=O)[C@@H](N)CCCNC(=N)N)C(=O)N[C@@H](Cc1c[nH]c2ccccc12)C(=O)N[C@@H](CCCNC(=N)N)C(=O)N[C@@H](Cc1c[nH]c2ccccc12)C(=O)N[C@@H](Cc1ccccc1)C(=O)N[C@@H](CC(C)C)C(N)=O [HHC75, RKWIWRWFL] (H-RKWIWRWFL-NH2; N-terminus assumed)",
    "assigned.category": 1
  },
  {
    "compound": "N=C(N)NCCC[C@H](NC(=O)[C@H](Cc1c[nH]c2ccccc12)NC(=O)[C@H](CCCCN)NC(=O)[C@H](CCCCN)NC(=O)[C@H](Cc1c[nH]c2ccccc12)NC(=O)[C@H](Cc1c[nH]c2ccccc12)NC(=O)[C@H](CCCNC(=N)N)NC(=O)[C@H](CCCCN)NC(=O)[C@@H](N)Cc1c[nH]c2ccccc12)C(N)=O [HHC45, WKRWWKKWR] (H-WKRWWKKWR-NH2; N-terminus assumed)",
    "assigned.category": 0
  }
]

###

- System: wild-type Salmonella enterica ssp. typhimurium
- Format: cell-based
Residues, ends and D or L forms follow the SMILES beside them.

[
  {
    "compound": "CC[C@H](C)[C@H](NC(=O)[C@H](CCCNC(=N)N)NC(=O)[C@H](Cc1ccccc1)NC(=O)[C@H](CCC(N)=O)NC(=O)[C@@H](N)CCCCN)C(=O)N[C@@H](CCCNC(=N)N)C(=O)N[C@H](C(=O)N[C@@H](CCCNC(=N)N)C(=O)N[C@H](C(=O)N[C@H](C(=O)N[C@@H](CCCNC(=N)N)C(=O)N[C@@H](CCCCN)C(N)=O)[C@@H](C)CC)C(C)C)C(C)C [HH12, KQFRIRVRVIRK] (H-KQFRIRVRVIRK-NH2; N-terminus assumed)",
    "tested.target": "wild-type Salmonella enterica ssp. typhimurium",
    "relation.symbol": "=",
    "MIC S. typhi [µg/mL]": 6
  },
  {
    "compound": "CC[C@H](C)[C@H](NC(=O)[C@H](CCCNC(=N)N)NC(=O)[C@H](Cc1ccccc1)NC(=O)[C@H](CCCNC(=N)N)NC(=O)[C@@H](N)CCCCN)C(=O)N[C@@H](CCCNC(=N)N)C(=O)N[C@H](C(=O)N[C@@H](C)C(=O)N[C@H](C(=O)N[C@@H](CCCNC(=N)N)C(=O)N[C@@H](CCCNC(=N)N)C(=O)N[C@@H](C)C(N)=O)C(C)C)C(C)C [HH10, KRFRIRVAVRRA] (H-KRFRIRVAVRRA-NH2; N-terminus assumed)",
    "tested.target": "wild-type Salmonella enterica ssp. typhimurium",
    "relation.symbol": ">",
    "MIC S. typhi [µg/mL]": 50
  },
  {
    "compound": "CC[C@H](C)[C@H](NC(=O)[C@H](CCCNC(=N)N)NC(=O)[C@H](CC(C)C)NC(=O)[C@H](CCCNC(=N)N)NC(=O)[C@@H](N)CCC(N)=O)C(=O)N[C@@H](CCCNC(=N)N)C(=O)N[C@H](C(=O)N[C@@H](C)C(=O)N[C@H](C(=O)N[C@H](C(=O)N[C@@H](CCCNC(=N)N)C(=O)N[C@@H](C)C(N)=O)[C@@H](C)CC)C(C)C)C(C)C [HH1, QRLRIRVAVIRA] (H-QRLRIRVAVIRA-NH2)",
    "tested.target": "wild-type Salmonella enterica ssp. typhimurium",
    "relation.symbol": "=",
    "MIC S. typhi [µg/mL]": 25
  },
  {
    "compound": "CC[C@H](C)[C@H](NC(=O)[C@H](CCCNC(=N)N)NC(=O)[C@H](CC(C)C)NC(=O)[C@H](CCCNC(=N)N)NC(=O)[C@@H](N)C(C)C)C(=O)N[C@@H](CCCNC(=N)N)C(=O)N[C@H](C(=O)N[C@@H](C)C(=O)N[C@H](C(=O)N[C@@H](CCCNC(=N)N)C(=O)N[C@@H](CCCNC(=N)N)C(=O)N[C@@H](C)C(N)=O)C(C)C)C(C)C [HH7, VRLRIRVAVRRA] (H-VRLRIRVAVRRA-NH2)",
    "tested.target": "wild-type Salmonella enterica ssp. typhimurium",
    "relation.symbol": "=",
    "MIC S. typhi [µg/mL]": 6
  },
  {
    "compound": "CC[C@H](C)[C@H](NC(=O)[C@H](CCCNC(=N)N)NC(=O)[C@H](CC(C)C)NC(=O)[C@H](CCCNC(=N)N)NC(=O)[C@@H](N)C(C)C)C(=O)N[C@@H](CCCNC(=N)N)C(=O)N[C@H](C(=O)N[C@@H](Cc1c[nH]c2ccccc12)C(=O)N[C@H](C(=O)N[C@H](C(=O)N[C@@H](CCCNC(=N)N)C(=O)N[C@@H](C)C(N)=O)[C@@H](C)CC)C(C)C)C(C)C [HH6, VRLRIRVWVIRA] (H-VRLRIRVWVIRA-NH2)",
    "tested.target": "wild-type Salmonella enterica ssp. typhimurium",
    "relation.symbol": "=",
    "MIC S. typhi [µg/mL]": 12
  }
]
